AC50 listing for selected compounds.
Test system: Clone20 osteoblast Shn3 3'UTR firefly luciferase, 24 h
assay.info: Shn3 3'UTR reporter inhibitors, dose response, cell-based, Clone20 osteoblasts, luminescence, dry powder, set 2 (AID 743417)
Records with an inconclusive call do not appear.

Previously resolved entries follow.
> print(dat)
                                   compound                        measurement.target  readout.type      value
1  Cc1cc(C)nc(/N=C(\N)Nc2ccc(-c3ccccc3)cc2)n1  Clone20 osteoblast Shn3 3'UTR firefly luciferase, 24 h          AC50    4.45 µM
2  COC(=O)C1=C(c2ccc(-c3ccccc3)c(F)c2)C[C@@H]2CC[C@H]1N2C(=O)NCC1CC1  Clone20 osteoblast Shn3 3'UTR firefly luciferase, 24 h          AC50    4.32 µM
3          C=CCn1c(C)cc(C2=NNC(=NCC)SC2)c1C  Clone20 osteoblast Shn3 3'UTR firefly luciferase, 24 h          AC50  < 0.26 µM

Tell me the measured AC50 of O=[N+]([O-])c1c(NCCCO)cc(Sc2ccc(Cl)cc2)c2nonc12 , please.
5.63 µM

Which AC50 is listed for COc1ccc2c(c1OC)C(=O)N1c3ccccc3C(=O)N(c3ccccc3F)C21 (stereo not given) ?
11.6 µM

---

Recorded AC50 by entry
System: Clone20 osteoblast Shn3 3'UTR firefly luciferase, 24 h
assay.info: Shn3 3'UTR reporter inhibitors, dose response, cell-based, Clone20 osteoblasts, luminescence, dry powder, set 2 (AID 743417)
Results filed as inconclusive are left out.

Example entries and their recorded answers appear below.
> print(dat)
                                   compound      value
1  Cc1ccc(CNC(=O)CSc2c3c(nc4ccc(Cl)cc24)CCCC3)o1    5.98 µM
2     CC(C)OC(=O)c1ccc(NCc2cc(O)ccc2O)cc1Cl    2.15 µM
3  COc1ccc(-c2nsc3c(N4CCCCC4C)ncnc23)cc1 (stereo not given)  < 0.26 µM
4  C=C1C(=O)[C@]23C[C@H]1CC[C@H]2[C@]1(C)[C@@H](OC(C)=O)CC[C@@](C)(C(=O)OC)[C@H]1C[C@@H]3OC(C)=O    5.99 µM

Let's switch to this compound now.
Record lookup: for Clone20 osteoblast Shn3 3'UTR firefly luciferase, 24 h, what AC50 belongs to COc1ccccc1OCC(O)Cn1c(=N)n(Cc2ccccc2)c2ccccc21 (stereo not given) ?
4.01 µM

---

Tested on: Clone20 osteoblast Shn3 3'UTR firefly luciferase, 24 h
assay.info: Shn3 3'UTR reporter inhibitors, dose response, cell-based, Clone20 osteoblasts, luminescence, dry powder, set 2 (AID 743417)
Records with an inconclusive call do not appear.
Listing: AC50 of selected compounds

Below: 5 compounds and their reported AC50.
> print(dat)
                                   compound                        measurement.target    value
1  CCCCCCCNC(=O)C1(CC2CC(c3cccc(Br)c3)=NO2)CCNCC1 (stereo not given)  Clone20 osteoblast Shn3 3'UTR firefly luciferase, 24 h  11.7 µM
2  CN(c1ccccc1)S(=O)(=O)c1cccc(NC(=O)c2ccc3ncsc3c2)c1  Clone20 osteoblast Shn3 3'UTR firefly luciferase, 24 h  17.2 µM
3  CCCC(=O)OCCNc1cc(Sc2nc3ccccc3[nH]2)c2nonc2c1[N+](=O)[O-]  Clone20 osteoblast Shn3 3'UTR firefly luciferase, 24 h  6.63 µM
4  COc1ccc(Cn2c(SCc3ccccc3C)nc3cc(OC)c(OC)cc3c2=N)cc1  Clone20 osteoblast Shn3 3'UTR firefly luciferase, 24 h  5.46 µM
5  Cc1ccccc1C(=O)N1CCN(c2ccc(NC(=O)CSc3ccc(Cl)cc3)cc2)CC1  Clone20 osteoblast Shn3 3'UTR firefly luciferase, 24 h  4.23 µM

AC50 lookup needed for Cc1c(CCOC(=O)CC23CC4CC(CC(C4)C2)C3)sc[n+]1CC(=O)c1ccc(Br)cc1 , thanks.
12.9 µM

What does the record list as AC50 for CCCCC(=O)NC(c1ccc(N(C)C)cc1)c1ccc2cccnc2c1O (stereo not given) ?
0.98 µM

Look up AC50 for this compound: CCOC(=O)c1cnc(-n2nc(C)cc2C)nc1NC1CCCCC1
3.01 µM

Return reported AC50; argument: O=C(c1ccccc1)c1ccccc1N1C(=O)C=CC1=O
16.7 µM

Which measured AC50 value corresponds to CCCCN1CC(COCc2ccccc2)Oc2cccc(Oc3cc(C)c(C)c(C)c3)c2S1(=O)=O (stereo not given) ?
9.16 µM

Could you share which AC50 value was measured for CC1CC(C)(C)CC2(C1)NC(=O)N(CC(=O)N1CCN(Cc3ccc(C#N)cc3)CC1)C2=O (stereo not given) ?
1.47 µM

Fill blank: measured AC50 of the compound Cc1ccc(CS(=O)(=O)c2ncc(Cl)c(C(=O)Nc3ccc(OC(F)F)cc3)n2)cc1 is ____.
2.34 µM

Consider the compound shown here: O=S1(=O)C=C(Sc2nnc(-c3ccccc3)o2)c2ccccc21 What is its recorded AC50?
1.7 µM

Name the recorded AC50 for Cn1cc([N+](=O)[O-])c(C(=O)Nc2cc(Oc3ccccc3)cc([N+](=O)[O-])c2)n1 .
5.41 µM

---

System: Clone20 osteoblast Shn3 3'UTR firefly luciferase, 24 h
assay.info: Shn3 3'UTR reporter inhibitors, dose response, cell-based, Clone20 osteoblasts, luminescence, dry powder, set 2 (AID 743417)
Results filed as inconclusive are left out.
readout.type: AC50

Query: AC50; subject: CCCOc1ccccc1N/C(=N/c1nc(C)cc(C)n1)NC(=O)COc1ccc(OC)cc1
3.24 µM

// returns reported AC50 for input O=C(/C=C/Sc1ncn[nH]1)c1ccc(Cl)cc1
9.76 µM

Given the compound C=CCNc1nc(-c2ccccn2)nnc1-c1ccccc1 , what is its reported AC50?
3.17 µM

Fill in: AC50 of CCC(C)C1NC(=O)C(NC(=O)C(CC(C)C)N(C)C(=O)C2CCCN2C(=O)C(C)O)C(C)OC(=O)C(Cc2ccc(OC)cc2)N(C)C(=O)C2CCCN2C(=O)C(CC(C)C)NC(=O)[C@H](C)C(=O)[C@H](C(C)C)OC(=O)CC1O (some centres undefined) is ___
< 0.26 µM

Bench note: what AC50 did CN(C)CCN1C(=O)c2cccc3cc([N+](=O)[O-])cc(c23)C1=O show?
1.11 µM

For the compound shown here, c1coc(CN(Cc2ccco2)c2ncnc3c2oc2ccccc23)c1 , give the reported AC50.
5.45 µM

Consider the compound shown here: CCOC(=O)c1c(C)[nH]c2c1-c1ccccc1C(=O)C2=O What is its recorded AC50?
0.496 µM

Quick check: AC50 of CC(C)(O)C#Cc1ccc([C@@H]2C[C@H]3CN(c4ccccc4)C(=O)[C@]34CCCN24)s1 ?
4.93 µM

Form field: reported AC50 of Cc1ccc(N2C(=O)c3cccc4c([N+](=O)[O-])ccc(c34)C2=O)c2cccnc12
5.68 µM

# query: AC50 of entry CSc1nnc(NC(=O)c2nc(S(=O)(=O)Cc3cccc(C)c3)ncc2Cl)s1
4.03 µM

What AC50 value was documented for this compound, COc1ccccc1/C=C1\CCCC2=C1Nc1nnnn1C2c1ccccc1OC (centres undefined) ?
36 µM

---

System: Clone20 osteoblast Shn3 3'UTR firefly luciferase, 24 h
assay.info: Shn3 3'UTR reporter inhibitors, dose response, cell-based, Clone20 osteoblasts, luminescence, dry powder, set 2 (AID 743417)
Results filed as inconclusive are left out.
readout.type: AC50

Examples from the recorded data:
compound	value
CCCCN(c1nc2ccccc2nc1Cl)S(=O)(=O)c1ccc(C)cc1	7.22 µM
S=C(NCCCCN(Cc1ccc(Cl)cc1)c1ccc(Br)cn1)NCCCc1cnc[nH]1	7.24 µM
C=C1C(=O)O[C@@H]2C[C@@H](C)[C@@H]3C=CC(=O)[C@@]3(C)[C@@H](OC(=O)CC(=O)O[C@H]3[C@@H]4C(=C)C(=O)O[C@@H]4C[C@@H](C)[C@@H]4C=CC(=O)[C@]43C)[C@H]12	0.292 µM
CC(=O)N1c2ccc(S(=O)(=O)N3CCC(C(=O)N4CCN(c5ccccc5F)CC4)CC3)cc2CC1C (stereo not given)	5.41 µM

Lab note: need AC50 with Clone20 osteoblast Shn3 3'UTR firefly luciferase, 24 h for entry Cc1ccc(C(=O)Nc2cccc3[nH]c(C(F)(F)F)nc23)cc1 , please look it up.
3.93 µM

Query for Clone20 osteoblast Shn3 3'UTR firefly luciferase, 24 h: what AC50 does the record show for Cc1ccc(S(=O)(=O)N2CCC3(CC2)OCCN3S(=O)(=O)c2c(C)cc(C)cc2C)cc1 ?
6.81 µM

API: value(readout=AC50, system=Clone20 osteoblast Shn3 3'UTR firefly luciferase, 24 h) for record Cc1ccc2cc(CN(CC3CCCO3)C(=O)NC3CCCCC3)c(=O)[nH]c2c1C (stereo not given)
4.49 µM

What AC50 appears in the records for this compound with Clone20 osteoblast Shn3 3'UTR firefly luciferase, 24 h? CCCCNc1nc2c(c(=O)n(C)c(=O)n2C)n1Cc1cccc(OC)c1
0.284 µM

# value lookup — system Clone20 osteoblast Shn3 3'UTR firefly luciferase, 24 h, readout AC50, item COc1ccc(NS(=O)(=O)c2ccc(-c3cnc(C4CC4)o3)cc2)cc1OC
1.33 µM

Form: Entry = COc1ccc(-c2cc(C(F)(F)F)nc(S(=O)(=O)CCCC(=O)Nc3cccnc3Cl)n2)cc1OC | System = Clone20 osteoblast Shn3 3'UTR firefly luciferase, 24 h | AC50 = ____
3.17 µM
